system: CP329; test: qHTS profiling for inhibitors of Plasmodium falciparum proliferation (AID 504749); also: nearly all actives have a fitted effect of over 60% in size; settings: P. falciparum in erythrocytes, SYBR Green DNA, 72 h; series mostly up to 28.7 µM
Results filed as inconclusive are left out. The source made the active and inactive calls. Calls follow the shape of the dose curve; as a rule, active = well fitted inhibition curve with a large enough effect; inconclusive = small, poorly fitted or top-dose-only effect; inactive = flat fitted curve, though single readings scatter.
endpoint-name: outcome

Cc1onc(-c2c(F)cccc2Cl)c1C(=O)N[C@@H]1C(=O)N2[C@H]1SC(C)(C)[C@H]2C(=O)O | inactive
C[C@@H]1C[C@H]2[C@H]3C[C@@H](F)C4=CC(=O)C=C[C@]4(C)[C@@]3(Cl)[C@@H](O)C[C@@]2(C)[C@@H]1C(=O)COC(=O)C(C)(C)C | inactive
CC(=O)N1CCN(c2ccc(OC[C@@H]3CO[C@@](Cn4ccnc4)(c4ccc(Cl)cc4Cl)O3)cc2)CC1 | inactive
CN1[C@@H]2CC(OC(=O)[C@@H](CO)c3ccccc3)C[C@@H]1[C@H]1O[C@H]12 (some centres undefined) | inactive
